Measured Km of individual entries
test-description: Enzyme kinetic study of 7β-HSDH mutants, DHCA kinetics with NADH as cofactor
Type: biochemical
condition-set: 0.5 mM NADH
Respond numerically; units are µM and should not be typed.

{"molecule": "G39D: 7β-HSDH from Collinsella aerofaciens with substitution G39D, produced as described in WO 2012/080504 (protein) MNLREKYGEWGLILGATEGVGKAFCEKIAAGGMNVVMVDRREEKLNVLAGEIRETYGVETKVVRADFSQPGAAETVFAATEGLDMGFMSYVACLHSFGKIQDTPWEKHEAMINVNVVTFLKCFHHYMRIFAAQDRGAVINVSSMTGISSSPWNGQYGAGKAFILKMTEAVACECEGTGVDVEVITLGTTLTPSLLSNLPGGPQGEAVMKIALTPEECVDEAFEKLGKELSVIAGQRNKDSVHDWKANHTEDEYIRYMGSFYRD", "assay-endpoint": "Km", "val": 660}

Query block: Name the reported Km value associated with the molecule DFKG: 7β-HSDH mutant with amino acid substitutions G39D R40F R41K K44G compared to the wild type sequence (protein) MNLREKYGEWGLILGATEGVGKAFCEKIAAGGMNVVMVDFKEEGLNVLAGEIRETYGVETKVVRADFSQPGAAETVFAATEGLDMGFMSYVACLHSFGKIQDTPWEKHEAMINVNVVTFLKCFHHYMRIFAAQDRGAVINVSSMTGISSSPWNGQYGAGKAFILKMTEAVACECEGTGVDVEVITLGTTLTPSLLSNLPGGPQGEAVMKIALTPEECVDEAFEKLGKELSVIAGQRNKDSVHDWKANHTEDEYIRYMGSFYRD
Result block: 380

Query block: Item DF: 7β-HSDH mutant with amino acid substitutions G39D R40F compared to the wild type sequence (protein) MNLREKYGEWGLILGATEGVGKAFCEKIAAGGMNVVMVDFREEKLNVLAGEIRETYGVETKVVRADFSQPGAAETVFAATEGLDMGFMSYVACLHSFGKIQDTPWEKHEAMINVNVVTFLKCFHHYMRIFAAQDRGAVINVSSMTGISSSPWNGQYGAGKAFILKMTEAVACECEGTGVDVEVITLGTTLTPSLLSNLPGGPQGEAVMKIALTPEECVDEAFEKLGKELSVIAGQRNKDSVHDWKANHTEDEYIRYMGSFYRD has what recorded Km?
Result block: 420

Query block: Give its Km value. Item: DFK: 7β-HSDH mutant with amino acid substitutions G39D R40F R41K compared to the wild type sequence (protein) MNLREKYGEWGLILGATEGVGKAFCEKIAAGGMNVVMVDFKEEKLNVLAGEIRETYGVETKVVRADFSQPGAAETVFAATEGLDMGFMSYVACLHSFGKIQDTPWEKHEAMINVNVVTFLKCFHHYMRIFAAQDRGAVINVSSMTGISSSPWNGQYGAGKAFILKMTEAVACECEGTGVDVEVITLGTTLTPSLLSNLPGGPQGEAVMKIALTPEECVDEAFEKLGKELSVIAGQRNKDSVHDWKANHTEDEYIRYMGSFYRD
Result block: 290

Query block: Km for G39D R40I: previously reported 7β-HSDH double mutant G39D R40I, reference, previously most active mutant (protein) MNLREKYGEWGLILGATEGVGKAFCEKIAAGGMNVVMVDIREEKLNVLAGEIRETYGVETKVVRADFSQPGAAETVFAATEGLDMGFMSYVACLHSFGKIQDTPWEKHEAMINVNVVTFLKCFHHYMRIFAAQDRGAVINVSSMTGISSSPWNGQYGAGKAFILKMTEAVACECEGTGVDVEVITLGTTLTPSLLSNLPGGPQGEAVMKIALTPEECVDEAFEKLGKELSVIAGQRNKDSVHDWKANHTEDEYIRYMGSFYRD ?
Result block: 920
